- System: MCF7
- TEST METHOD NOTES: Cytotoxicity against human MCF7 cells assessed as growth inhibition after 48 hrs by MTS assay
- Format: functional, cell-based
- CONDITION NOTES: MCF7, 48 h
IC50 reference

C=C1C(=O)[C@@]23C[C@H](O)[C@@H]4C(C)(C)CCC[C@@]4(C)[C@@H]2[C@@H](O)C[C@@H]1[C@H]3O: 3.7 µM

Pending molecule:
May I ask what IC50 has been recorded for "C=C1C(=O)[C@]23[C@H](O)[C@H]1[C@@H](O)C[C@H]2[C@]1(C)CCC[C@](C)(COC(C)=O)[C@H]1C[C@H]3OC(C)=O" ?
1.6 µM

====

- Tested on: MCF7
- TEST METHOD NOTES: Cytotoxicity against human MCF7 cells assessed as growth inhibition after 48 hrs by MTS assay
- Format: functional, cell-based
- CONDITION NOTES: MCF7, 48 h
pIC50: −log10 of the molar value.
pIC50 reference

Before answering, review these 4 worked examples.
C=C1C(=O)[C@@]23[C@H](O)C[C@@H]4C(C)(C)CCC[C@@]4(C)[C@@H]2C[C@H](O)[C@@H]1[C@H]3O: 6.40
C=C1[C@@H]2C[C@H](OC(C)=O)[C@H]3[C@]4(C)[C@@H](OC(C)=O)C[C@H](O)C(C)(C)[C@H]4C(=O)[C@H](O)[C@]3(C2)[C@@H]1O: < 5.00
CC(=O)O[C@H]1C(=O)[C@@]2(C)[C@H]([C@H](OC(=O)c3ccccc3)[C@]3(O)C[C@H](OC(=O)[C@H](O)[C@@H](NC(=O)c4ccccc4)c4ccccc4)C(C)=C1C3(C)C)[C@]1(OC(C)=O)CO[C@@H]1C[C@@H]2O: > 8.10
C=C1C(=O)[C@]23[C@H](O)[C@H]1[C@@H](O)[C@H](O)[C@H]2[C@]1(C)CCCC(C)(C)[C@H]1C[C@H]3OC(C)=O: < 5.00

Test system MCF7; read-out pIC50; what value for "C=C1[C@H]2[C@@H](O)[C@@]3([C@H](O)C[C@@H]4[C@@](C)(CO)CCC[C@@]4(C)[C@@H]3C[C@@H]2O)[C@@H]1O" ?
< 5.00

====

pIC50 reference
- System: MCF7
- TEST METHOD NOTES: Cytotoxicity against human MCF7 cells assessed as growth inhibition after 48 hrs by MTS assay
- Assay type: functional, cell-based
- CONDITION NOTES: MCF7, 48 h
By convention, pIC50 is the negative base-10 log of a molar concentration.

Before answering, review these 4 worked examples.
C=C1C(=O)[C@@]23[C@H](O)C[C@@H]4[C@@](C)(CO)CCC[C@@]4(C)[C@@H]2CC[C@@H]1[C@H]3O [EXCISANIN C]: 5.80
C=C1C(=O)[C@]23C[C@H]1CC[C@H]2[C@]1(CO)CCC[C@](C)(CO)[C@H]1C[C@H]3O: 5.14
C=C1C(=O)[C@@]23CC[C@H]4[C@@](C)(CCC[C@]4(C)C=O)[C@@H]2C[C@H](O)[C@@H]1[C@H]3O: 5.77
C=C1C(=O)[C@]23C[C@H]1[C@@H](O)C[C@H]2[C@]1(C)CCC[C@](C)(CO)[C@H]1C[C@H]3O: 5.31

Pending compound:
Test system MCF7; read-out pIC50; what value for "C=C1C(=O)[C@@]23[C@H](O)C[C@@H]4C(C)(C)CCC[C@@]4(C)[C@@H]2[C@@H](O)[C@H](O)[C@@H]1[C@H]3O" ?
5.52

Taken from ChEMBL document CHEMBL3233000.
